Let's look at some molecules and their measured AUC.
- method: PK data for BTK CTMs (in vivo plasma concentrations)
- conditionNotes: Mouse CD-1, 10 mg/kg PO

CN1CCN([C@H]2CCCN(c3cnc(C(N)=O)c(Nc4ccc(C5CCN(CC6CCN(c7ccc(C(=O)NC8CCC(=O)NC8=O)nc7)CC6)CC5)cc4)n3)C2)C1=O (some centres unmarked) : 5.2 µM·h

// field: AUC; key: NC(=O)c1ncc(N2CCCCC2)nc1Nc1ccc(C2CCN(C[C@@H]3CCN(c4ccc5c(c4)C(=O)N(C4CCC(=O)NC4=O)C5=O)C3)CC2)cc1 (some centres unmarked) ; value = 11.5 µM·h

----------
Let's look at some molecules and their measured Vd.
- method: PK data for BTK CTMs (in vivo plasma concentrations)
- conditionNotes: Dog Beagle, 1 mg/kg IV, read-out: Volume of Distribution
Field: numeric (L/kg). Do not append units.

NC(=O)c1ncc(N2CCCCC2)nc1Nc1ccc(C2CCN(C[C@@H]3CCN(c4ccc5c(c4)C(=O)N(C4CCC(=O)NC4=O)C5=O)C3)CC2)cc1 (some centres unmarked) : 7

Query molecule follows.
// field: Vd; key: CN1CCN([C@H]2CCCN(c3cnc(C(N)=O)c(Nc4ccc(C5CCN(CC6CCN(c7ccc(C(=O)NC8CCC(=O)NC8=O)nc7)CC6)CC5)cc4)n3)C2)C1=O (some centres unmarked) ; value = 56

----------
- Test system: B cell receptor (BCR) signaling
- method: B cell activation assay (flow cytometry), mouse B cells
- Assay type: cell-based
- conditionNotes: treatment 4 h, IgM stimulation 18 h, read-out: CD69 EC50
measurementType: pEC50
On this scale, pEC50 is minus log10 of a concentration expressed in M (mol/L).

Some compounds with recorded pEC50:
CN1CCN([C@@H]2CCCN(c3cnc(C(N)=O)c(Nc4ccc(C5CCN(CC6CCN(c7ccc8c(=O)n(C9CCC(=O)NC9=O)ccc8c7)CC6)CC5)cc4)n3)C2)C1=O (stereo partly shown) : 10.15
O=C(c1ccc(Oc2ccccc2)cc1Cl)c1c[nH]c2ncnc(N[C@@H]3CC[C@@H](CO)OC3)c12 : 7.30
CN1CCN([C@@H]2CCCN(c3cnc(C(N)=O)c(Nc4ccc(C5CCN(CC6CCN(c7ccc(-c8nn(C9CCC(=O)NC9=O)c(=O)n8C)cc7)CC6)CC5)cc4)n3)C2)C1=O (stereo partly shown) : 9.30
CN1CCN([C@H]2CCCN(c3cnc(C(N)=O)c(Nc4cnn(C5CCN(CC6CCN(c7ccc8c(c7)C(=O)N(C7CCC(=O)NC7=O)C8=O)CC6)CC5)c4)n3)C2)C1=O (stereo partly shown) : 10.10
CN1CCN([C@@H]2CCCN(c3cnc(C(N)=O)c(Nc4ccc(C5CCN(C[C@H]6CCN(c7ccc8c(c7)C(=O)N(C7CCC(=O)NC7=O)C8=O)C6)CC5)cc4)n3)C2)C1=O (stereo partly shown) : 9.70

Query compound follows.
// field: pEC50; key: CN1CCN([C@@H]2CCCN(c3cnc(C(N)=O)c(Nc4ccc(C5CN(C6CCN(c7ccc8c(c7)C(=O)N(C7CCC(=O)NC7=O)C8=O)CC6)C5)cc4)n3)C2)C1=O (stereo partly shown) ; value = 10.00

----------
- System: Rec-1 cells
- method: Cell viability assay (CellTiter-Glo), Rec-1 cells
- Format: cell-based
- conditionNotes: treatment time 72 h
Let's look at some compounds and their measured EMAX (% viable cells).
A bare number is not enough; add the unit after it.

CN1CCN([C@H]2CCCN(c3cnc(C(N)=O)c(Nc4ccc(C5CCN(CC6CCN(c7ccc(C(=O)NC8CCC(=O)NC8=O)nc7)CC6)CC5)cc4)n3)C2)C1=O (some centres unmarked) : 63%
CC#CC(=O)N1CCC[C@H]1c1nc(-c2ccc(C(=O)Nc3ccccn3)cc2)c2c(N)nccn12 [Acalabrutinib, acalabrutinib, reference compound] : 76%
NC(=O)c1ncc(N2CCCCC2)nc1Nc1ccc(C2CCN(C[C@@H]3CCN(c4ccc5c(c4)C(=O)N(C4CCC(=O)NC4=O)C5=O)C3)CC2)cc1 (some centres unmarked) : 24%

EMAX (% viable cells) of CN1CCN([C@@H]2CCCN(c3cnc(C(N)=O)c(Nc4ccc(C5CCN(C[C@H]6CCN(c7ccc8c(c7)C(=O)N(C7CCC(=O)NC7=O)C8=O)C6)CC5)cc4)n3)C2)C1=O (some centres unmarked) , assay on Rec-1 cells, is 37%

EMAX (% viable cells) of C=CC(=O)N1CCC[C@@H](n2nc(-c3ccc(Oc4ccccc4)cc3)c3c(N)ncnc32)C1 [Ibrutinib, reference compound] , assay on Rec-1 cells, is 68%
